So I've got a bunch of compounds here, and I need their IC50 values.
Target: human serotonin 5-HT6 receptor (Homo sapiens, UniProt P50406)
Sequence (P50406 whole entry): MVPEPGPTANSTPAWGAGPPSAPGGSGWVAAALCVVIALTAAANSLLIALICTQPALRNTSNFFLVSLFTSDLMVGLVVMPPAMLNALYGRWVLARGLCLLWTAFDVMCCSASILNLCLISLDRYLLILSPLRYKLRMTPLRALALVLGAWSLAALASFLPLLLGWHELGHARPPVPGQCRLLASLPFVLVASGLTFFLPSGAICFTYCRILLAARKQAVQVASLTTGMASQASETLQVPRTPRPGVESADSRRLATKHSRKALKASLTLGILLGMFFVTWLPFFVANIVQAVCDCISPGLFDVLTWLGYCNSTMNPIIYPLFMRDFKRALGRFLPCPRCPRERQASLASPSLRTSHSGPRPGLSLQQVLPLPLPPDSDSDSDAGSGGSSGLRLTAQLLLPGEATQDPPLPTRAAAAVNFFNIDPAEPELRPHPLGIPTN
Test: [3H]LSD binding assay for cloned 5-HT6 receptors
Give bare numbers, in nM.

Past entries and their recorded results:
CN1CCN(c2cc(Cl)cc3c2c(=O)n(Cc2ccc(F)cc2)c(=O)n3Cc2ccccc2)CC1 :: 1.5
COc1ccccc1Cn1c(=O)c2c(N3CCNCC3)cc(Cl)cc2n(Cc2ccccc2)c1=O :: 2.3
COc1cccc(Cn2c(=O)c3c(N4CCNCC4)cc(Cl)cc3n(Cc3ccccc3)c2=O)c1 :: 6.4
CN1CCN(c2cc(Cl)cc3c2c(=O)n(Cc2cccc([N+](=O)[O-])c2)c(=O)n3Cc2ccccc2)CC1 :: 0.6
C[C@@H](c1ccccc1)n1c(=O)c2c(N3CCNCC3)cc(Cl)cc2n(Cc2ccccc2)c1=O :: 2.7
COc1ccccc1Cn1c(=O)c2c(N3CCN(C)CC3)cc(Cl)cc2n(Cc2ccccc2)c1=O :: 1.9
Cc1ccc(Cn2c(=O)c3c(N4CCN(C)CC4)cc(Cl)cc3n(Cc3ccccc3)c2=O)cc1 :: 2
CC(C)Cc1cccc(CCCn2c(=O)c3c(N4CCN(C)CC4)cc(Cl)cc3n(Cc3ccccc3)c2=O)c1 :: 10.5
CCCCn1c(=O)c2c(N3CCN(C)CC3)cc(Cl)cc2n(Cc2ccccc2)c1=O :: 2.8
O=c1c2c(N3CCNCC3)cc(Cl)cc2n(Cc2ccccc2)c(=O)n1Cc1ccccc1Cl :: 1.7

Batch lookup, IC50 per entry.
1. CCCCCCCCn1c(=O)c2c(N3CCN(C)CC3)cc(Cl)cc2n(Cc2ccccc2)c1=O
2. CCn1c(=O)c2c(N3CCN(C)CC3)cc(Cl)cc2n(Cc2ccccc2)c1=O
3. Cc1ccc(Cn2c(=O)c3c(N4CCN(C)CC4)cc(Cl)cc3n(Cc3ccccc3)c2=O)o1
4. CN1CCN(c2cc(Cl)cc3c2c(=O)n(Cc2ccccc2Br)c(=O)n3Cc2ccccc2)CC1
5. CN1CCN(c2cc(Cl)cc3c2c(=O)n(Cc2ccccc2)c(=O)n3Cc2ccccc2)CC1

Outgoing:
1: 1.5; 2: 3.1; 3: 1.4; 4: 0.9; 5: 2.4

Batch request: IC50 for each of the following compounds.
1. CN1CCN(c2cc(Cl)cc3c2c(=O)n(Cc2ccccc2F)c(=O)n3Cc2ccccc2)CC1
2. CC(C)CCn1c(=O)c2c(N3CCN(C)CC3)cc(Cl)cc2n(Cc2ccccc2)c1=O
3. CN1CCN(c2cc(Cl)cc3c2c(=O)n(Cc2ccccc2[N+](=O)[O-])c(=O)n3Cc2ccccc2)CC1
4. CN1CCN(c2cc(Cl)cc3c2c(=O)n(Cc2ccc(Cl)cc2)c(=O)n3Cc2ccccc2)CC1
5. CCCn1c(=O)c2c(N3CCN(C)CC3)cc(Cl)cc2n(Cc2ccccc2)c1=O
6. CN1CCN(c2cc(Cl)cc3c2c(=O)n(CCc2ccccc2)c(=O)n3Cc2ccccc2)CC1
7. CN1CCN(c2cc(Cl)cc3c2c(=O)n(Cc2cccc(I)c2)c(=O)n3Cc2ccccc2)CC1

Outgoing:
[1.2, 3.6, 1.4, 3.1, 2, 0.5, 1.6]

Provide reported IC50 for each item, in the same order as listed.
1. Cc1ccccc1Cn1c(=O)c2c(N3CCN(C)CC3)cc(Cl)cc2n(Cc2ccccc2)c1=O
2. CN1CCN(c2cc(Cl)cc3c2c(=O)n(Cc2ccc(N)cc2)c(=O)n3Cc2ccccc2)CC1
3. CN1CCN(c2cc(Cl)cc3c2c(=O)n(Cc2ccc(O)cc2)c(=O)n3Cc2ccccc2)CC1
4. CN1CCN(c2cc(Cl)cc3c2c(=O)n(Cc2cccc(F)c2)c(=O)n3Cc2ccccc2)CC1
5. O=c1c2c(N3CCNCC3)cc(Cl)cc2n(Cc2ccccc2)c(=O)n1Cc1ccccc1F
6. O=c1c2c(N3CCNCC3)cc(Cl)cc2n(Cc2ccccc2)c(=O)n1Cc1ccccc1[N+](=O)[O-]
7. CCn1c(=O)n(Cc2ccccc2)c(=O)c2c(N3CCN(C)CC3)cc(Cl)cc21

Outgoing:
1: 2.1; 2: 22.1; 3: 27; 4: 1.9; 5: 0.6; 6: 5.7; 7: 729

The values you see were collected from patent US20090203708A1.
